# Relative Potency listing for each entry below
- assayTarget: TRPM8 (Homo sapiens, UniProt Q7Z2W7)
- Sequence (Q7Z2W7 whole entry): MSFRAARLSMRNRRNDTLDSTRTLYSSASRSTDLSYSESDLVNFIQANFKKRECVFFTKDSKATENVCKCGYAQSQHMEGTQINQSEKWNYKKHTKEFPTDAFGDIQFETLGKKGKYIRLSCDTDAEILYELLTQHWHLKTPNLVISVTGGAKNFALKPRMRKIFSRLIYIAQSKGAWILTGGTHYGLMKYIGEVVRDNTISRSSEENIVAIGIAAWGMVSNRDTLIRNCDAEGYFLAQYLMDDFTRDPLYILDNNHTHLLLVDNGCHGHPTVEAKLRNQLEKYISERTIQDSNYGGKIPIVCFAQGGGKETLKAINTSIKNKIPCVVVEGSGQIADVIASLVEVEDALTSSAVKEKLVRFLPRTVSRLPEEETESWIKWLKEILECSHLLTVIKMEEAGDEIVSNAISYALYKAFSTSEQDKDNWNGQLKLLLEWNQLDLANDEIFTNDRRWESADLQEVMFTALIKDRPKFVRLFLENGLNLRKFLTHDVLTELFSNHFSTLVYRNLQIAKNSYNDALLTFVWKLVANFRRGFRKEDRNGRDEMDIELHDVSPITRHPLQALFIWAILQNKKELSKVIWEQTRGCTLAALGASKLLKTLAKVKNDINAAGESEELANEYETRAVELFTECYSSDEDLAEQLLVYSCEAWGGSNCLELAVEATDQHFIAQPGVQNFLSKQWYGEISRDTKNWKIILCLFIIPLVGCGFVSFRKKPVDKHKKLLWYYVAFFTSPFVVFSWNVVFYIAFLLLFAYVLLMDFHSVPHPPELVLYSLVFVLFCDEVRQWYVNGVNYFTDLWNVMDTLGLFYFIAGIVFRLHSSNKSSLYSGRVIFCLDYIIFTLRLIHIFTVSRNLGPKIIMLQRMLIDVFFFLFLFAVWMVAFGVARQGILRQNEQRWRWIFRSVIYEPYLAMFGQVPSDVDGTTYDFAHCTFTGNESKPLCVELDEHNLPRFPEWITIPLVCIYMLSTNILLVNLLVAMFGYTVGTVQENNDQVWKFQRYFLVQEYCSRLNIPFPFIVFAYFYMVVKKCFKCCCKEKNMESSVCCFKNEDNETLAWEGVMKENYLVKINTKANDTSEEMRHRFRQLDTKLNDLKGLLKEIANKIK
- measurementProtocol: TRPM8 receptor agonist assay (Fluo-8 calcium, FLIPR)
- Type: cell-based
- Set-up: host or cells: CHO cells, stably transfected
- condition: relative to menthol = 1.0 (Table 2)
Lab note: record just the number, no unit beside it.

Here is how some molecules turned out for Relative Potency.
1. CCCCCCCCCP(=O)(C(C)C)C(C)C [DIPA-1-9, 1-[Diisopropyl-phosphinoyl]-nonane]    4.0
2. CCCCCCP(=O)(C(C)C)C(C)C [DIPA-1-6, 1-Diisopropyl-phosphinoyl-hexane]    1.6
3. CCCCCP(=O)(CC(C)C)CC(C)C [DAPA-3-1, 1-Di(iso-butyl) phosphinoyl-pentane]    0.2

Next:
Entry CCCCCCCP(=O)(C(C)C)C(C)C [DIPA-1-7, 1-Diisopropyl-phosphinoyl-heptane] has what Relative Potency?
5.4
